# SYSTEM_NAME: Lysine-specific demethylase 4A (Homo sapiens) (UniProt O75164)
# Sequence (O75164 whole entry, looked up, the tested form may be a part): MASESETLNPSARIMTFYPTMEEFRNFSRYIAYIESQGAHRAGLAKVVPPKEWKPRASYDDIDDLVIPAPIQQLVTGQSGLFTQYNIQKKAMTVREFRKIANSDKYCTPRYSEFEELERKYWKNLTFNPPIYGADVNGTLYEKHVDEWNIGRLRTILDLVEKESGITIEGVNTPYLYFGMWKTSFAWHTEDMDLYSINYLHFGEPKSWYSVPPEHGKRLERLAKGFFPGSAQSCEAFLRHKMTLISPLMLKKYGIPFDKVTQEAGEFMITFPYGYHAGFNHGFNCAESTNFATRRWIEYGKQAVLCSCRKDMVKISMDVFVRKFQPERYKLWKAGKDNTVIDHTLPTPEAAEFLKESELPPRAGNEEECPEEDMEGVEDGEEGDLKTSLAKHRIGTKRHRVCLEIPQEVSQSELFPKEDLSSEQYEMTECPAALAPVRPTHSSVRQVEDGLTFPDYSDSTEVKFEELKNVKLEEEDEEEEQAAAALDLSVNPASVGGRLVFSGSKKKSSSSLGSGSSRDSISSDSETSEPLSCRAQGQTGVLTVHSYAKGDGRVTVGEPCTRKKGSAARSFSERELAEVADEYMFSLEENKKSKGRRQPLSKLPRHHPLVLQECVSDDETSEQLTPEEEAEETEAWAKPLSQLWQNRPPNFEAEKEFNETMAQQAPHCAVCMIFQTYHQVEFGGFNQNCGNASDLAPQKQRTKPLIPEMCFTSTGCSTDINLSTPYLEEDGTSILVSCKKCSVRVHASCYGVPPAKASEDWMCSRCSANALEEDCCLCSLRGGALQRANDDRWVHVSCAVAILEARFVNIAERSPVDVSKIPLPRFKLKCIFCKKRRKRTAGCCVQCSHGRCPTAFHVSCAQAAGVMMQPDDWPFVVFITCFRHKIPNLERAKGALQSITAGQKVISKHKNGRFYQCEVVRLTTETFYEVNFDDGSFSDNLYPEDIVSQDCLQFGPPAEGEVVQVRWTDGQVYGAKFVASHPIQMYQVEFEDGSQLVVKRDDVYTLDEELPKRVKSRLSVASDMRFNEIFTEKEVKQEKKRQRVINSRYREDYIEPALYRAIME
# ASSAY_DETAILS: qHTS Assay for Inhibitors of JMJD2A-Tudor Domain; further: nearly all actives have a fitted effect of over 50% in size
# CONDITION: AlphaScreen JMJD2A-Tudor / H3K4me3 peptide binding; series mostly up to 114 µM
# Description: JMJD2A is a jumonji-domain-containing lysine demethylase that uses Fe(II) together with 2-OG to effect oxidative demethylation of histones. Methylation is one of many […] modification that affect epigenetic transcription. […] A quantitative high throughput AlphaScreen has been developed to identify small molecule inhibitors based on a protocol published by NCGC and SGC [4]. […] [2] Yasgar, et al. Compound Management for Quantitative High-Throughput Screening. […]
Hit rate of the full screen: of about 390,000 compounds, about 17,000 (4.4%) were called active. Roughly 8% stayed inconclusive and do not appear here. The call rests on the fitted dose curve; in most records, active means well fitted inhibition curve with a large enough effect; inconclusive means small, poorly fitted or top-dose-only effect; inactive means no such curve, though single readings can be large or run the other way. The sample holds actives, similar compounds and a random draw of the others, so the mix is not that of the screen.
Possible outcomes: active, inactive

> print(dat)
                                    compound  qualitative.label
 1  Cc1ccccc1-c1nc2cc(NC(=O)c3cccc(OCCC(C)C)c3)ccc2o1           inactive
 2  O=C(CN1C(=O)COc2ccc(Cl)cc21)Nc1ccc(N2CCOCC2)cc1           inactive
 3  CC(OC(=O)CN1C(=O)COc2ccccc21)C(=O)NCc1ccc(F)cc1 (centres undefined)           inactive
 4           Cc1n[nH]c(=O)n1-c1ccc(C(C)C)cc1           inactive
 5  CC(C)(C)OC(=O)N1CCC(c2c(C(=O)NCCc3ccsc3)cnn2-c2ccc(F)cc2F)CC1           inactive
 6  COc1cc2c(cc1OC)C(COc1ccc(F)cc1)N(C(=O)c1ccccc1F)CC2 (centres undefined)           inactive
 7              O=c1[nH]c2cc(Br)ccc2n2cccc12           inactive
 8  Cc1csc2nc(COc3ccc(NC(=O)COc4ccccc4)cc3)cc(=O)n12           inactive
 9  CN(C(=O)CN1C(=O)/C(=C/c2ccc(Cl)cc2)SC1=S)C1CCS(=O)(=O)C1 (centres undefined)           inactive
10  Cc1cccc2c(=O)cc(CSc3ccccc3NC(=O)C(C)C)[nH]c12           inactive
11  CCOc1ccc(NC(=O)c2c(NCc3cccc(OC)c3OC)sc3c2CCC3)cc1           inactive
12  S=C(NCCCc1cnc[nH]1)NCCCN(Cc1ccc(Cl)c(Cl)c1)c1ccc(Br)cn1             active
13  COc1cccc(C(=O)NC(=O)Nc2ccc(-c3cc(C(F)(F)F)nn3-c3ccccc3)cc2)c1           inactive
14  O=C1CC(c2ccc(F)cc2F)c2cc3c(cc2N1)OCO3 (centres undefined)           inactive
15  CN(C)S(=O)(=O)N1CCN(c2ccc([N+](=O)[O-])cc2)CC1           inactive
16  CC(C)(C)NC(=O)CSc1nc(-c2ccc(F)cc2)cc(C(F)(F)F)n1           inactive
17    COc1ccccc1N1CCN(c2nc(C)cc(=O)[nH]2)CC1           inactive
18  O=C(Cn1nc(Cc2cccnc2)c2ccccc2c1=O)N1CCN(c2ccccc2F)CC1           inactive
19  COc1ccc(-n2c(-c3ccc(OC)c(OC)c3)n[nH]c2=S)cc1             active
20                O=C(CCCOc1ccccc1)NCc1ccco1           inactive
21  Cc1ccc(OCc2nnc(SC3CCc4ccccc4C3=O)n2C)cc1 (centres undefined)             active
22  Cc1cccnc1NC(=O)CSc1nnc(COc2ccc(C(C)C)cc2)n1C           inactive
23      COc1ccccc1OCC(=O)OCc1cc(-c2ccco2)on1           inactive
24           CSC1=N/C(=C\C=C\c2cccs2)C(=O)S1             active
25         COc1ccccc1-c1cc(C(=O)N2CCCCC2)no1           inactive
26  O=[N+]([O-])c1ccc(N2CCN(c3ccc(O)cc3)CC2)c(Cl)c1             active
27  CCC(=O)N1CCc2cc(Br)cc(S(=O)(=O)CCC(=O)N3CCN(c4ccc(F)cc4)CC3)c21           inactive
28  CCN(CC)CCn1c2c(c(SCC(=O)Nc3nc4ccccc4s3)nc1=O)CCCC2           inactive
29  CCOc1ccccc1CNC(=O)c1ccc(-n2c(C)cc3c2CCC(C)C3)cc1 (centres undefined)           inactive
30       COc1ccc(-c2nc3ccccc3n2CCC(C)C)cc1OC           inactive
31  O=C(Nn1cc(C(=O)N2CCN(c3ccccc3F)CC2)c2ccccc2c1=O)c1cnccn1             active
32  COc1ccc(OC)c(-n2c(-c3ccn[nH]3)n[nH]c2=S)c1             active
33  COc1ccc(CCNc2nc3c(-c4cccc(F)c4)nnn3c3ccccc23)cc1OC           inactive
34  CCOC(=O)CSc1nnc(CNC(=O)c2cccs2)n1-c1cc(OC)ccc1OC           inactive
35  Cc1ccc2[nH]c3c(=O)n(CC(=O)NC(C)C)ncc3c2c1           inactive
36  Cc1nc2ccn(Cc3cccnc3)c(=O)c2cc1C(=O)N1CCN(c2ccccc2F)CC1           inactive
37  COc1ccc(-c2c(C)nn3c(N4CCC(C(=O)NCCC(C)C)CC4)cc(C)nc23)cc1OC           inactive
38           S=C(c1ccc(-c2ccccc2)o1)N1CCCCC1             active
39    CN1CCN(C(=O)c2ccc(-c3ccc(Br)cc3)o2)CC1           inactive
40   CCCCc1nnc(NC(=O)CSc2nc(C)cc(=O)[nH]2)s1           inactive
41      O=C(CN1C(=O)COc2ccccc21)Nc1ccc(F)cc1             active
42    CCOC(=O)Cc1csc(NC(=O)CSc2ccc(Br)cc2)n1           inactive
43  O=S(=O)(c1ccc2nc(N3CCN(c4cccc(Cl)c4)CC3)ccc2c1)N1CCCCC1           inactive
44            N#CN1CCC(NC(=O)c2ccc(F)cc2)CC1           inactive
